test: SAD study pharmacokinetic analysis; format: in vivo, human; conditions: male, human, plasma, oral, SAD, across doses; read-out: median tmax
REPORTED ENDPOINT: Tmax

{"COMPOUND": "Cc1c(C)c2c(c(C)c1O)CC[C@@](C)(C(=O)N[C@@H]1CCCNC1)O2.Cl [KH176]", "REPORTED ENDPOINT": "Tmax", "RESULT": "0.75 to 1.5 h"}

----------
experiment: SAD study pharmacokinetic analysis; format: in vivo, human; conditions: male, human, plasma, oral, 100 mg, SAD, KH176 100 mg, fasted; read-out: AUC0-inf (Geomean)

{"ENTRY SMILES": "Cc1c(C)c2c(c(C)c1O)CC[C@@](C)(C(=O)N[C@@H]1CCCNC1)O2.Cl", "AUC(0-inf) / ng·h/mL": 1540}

----------
experiment: SAD study pharmacokinetic analysis; type: in vivo, human; settings: male, human, plasma, oral, 30 mg, SAD, KH176 30 mg, fasted; read-out: AUC0-inf (Geomean)

{"MOLECULE": "Cc1c(C)c2c(c(C)c1O)CC[C@@](C)(C(=O)N[C@@H]1CCCNC1)O2.Cl [KH176]", "UNIT ABBREV": "ng·h/mL", "AUC(0-inf)": 474}

----------
test: SAD study pharmacokinetic analysis; type: in vivo, human; conditions: male, human, plasma, oral, single- and multiple-dose administration; read-out: median tmax

{"ENTRY SMILES": "Cc1c(C)c2c(c(C)c1O)CC[C@@](C)(C(=O)N[C@@H]1CCCNC1)O2.Cl", "Tmax": "0.75 to 2 h"}

----------
test: SAD study pharmacokinetic analysis; format: in vivo, human; settings: male, human, plasma, oral, SAD, approximate, across dose groups; read-out: t1/2 (converted)

{"ENTRY SMILES": "Cc1c(C)c2c(c(C)c1O)CC[C@@](C)(C(=O)N[C@@H]1CCCNC1)O2.Cl", "half-life": "~10 h"}

----------
assay: MAD study pharmacokinetic analysis; assay type: in vivo, human; conditions: male, human, plasma, oral, 400 mg, MAD, KH176 400 mg b.i.d, Day 1; read-out: Cmax (Geomean)
REPORTED ENDPOINT: Cmax (µg/mL)

{"ENTRY SMILES": "Cc1c(C)c2c(c(C)c1O)CC[C@@](C)(C(=O)N[C@@H]1CCCNC1)O2.Cl", "REPORTED ENDPOINT": "Cmax", "UNIT ABBREV": "µg/mL", "QUANTITATIVE READOUT": 1.33}

----------
assay: MAD study pharmacokinetic analysis; type: in vivo, human; conditions: male, human, plasma, oral, 200 mg, MAD, KH176 200 mg b.i.d, Day 7; read-out: tmax* (median)

{"COMPOUND": "Cc1c(C)c2c(c(C)c1O)CC[C@@](C)(C(=O)N[C@@H]1CCCNC1)O2.Cl [KH176]", "Tmax (h)": 2}

----------
Assay: MAD study pharmacokinetic analysis
Assay type: in vivo, human
Settings: male, human, plasma, oral, 200 mg, MAD, KH176 200 mg b.i.d, Day 1; read-out: AUCtau (Geomean)
Procedure: Dose escalation to the next dose level was done after evaluation of the safety and the first 24-hour pharmacokinetic results of the previous dose. […] For mean value calculations, all values below the limit of quantification (LOQ) were set to zero. […] The PK parameters were calculated on the basis of the actual blood sampling time points relative to dosing. […] In urine, the percentage of dose excreted in urine was determined for the single- and multiple-dose administration.
REPORTED ENDPOINT: AUC (ng·h/mL)

{"MOLECULE": "Cc1c(C)c2c(c(C)c1O)CC[C@@](C)(C(=O)N[C@@H]1CCCNC1)O2.Cl [KH176]", "REPORTED ENDPOINT": "AUC", "QUANTITATIVE READOUT": 2250}

----------
assay: SAD study pharmacokinetic analysis; type: in vivo, human; conditions: male, human, plasma, oral, 800 mg, SAD, KH176 800 mg, fasted; read-out: AUClast (Geomean)
REPORTED ENDPOINT: AUC(0-t)

{"ENTRY SMILES": "Cc1c(C)c2c(c(C)c1O)CC[C@@](C)(C(=O)N[C@@H]1CCCNC1)O2.Cl", "RESULT": "21000 ng·h/mL"}

----------
assay: SAD study pharmacokinetic analysis; type: in vivo, human; details: male, human, plasma, oral, 800 mg, SAD, KH176 800 mg, fasted; read-out: AUC0-inf (Geomean)

{"ENTRY SMILES": "Cc1c(C)c2c(c(C)c1O)CC[C@@](C)(C(=O)N[C@@H]1CCCNC1)O2.Cl", "AUC(0-inf)": "25800 ng·h/mL"}

----------
experiment: SAD study pharmacokinetic analysis; format: in vivo, human; settings: male, human, plasma, oral, 300 mg, SAD, KH176 300 mg, fasted; read-out: tmax* (median)
REPORTED ENDPOINT: Tmax (min)

{"ENTRY SMILES": "Cc1c(C)c2c(c(C)c1O)CC[C@@](C)(C(=O)N[C@@H]1CCCNC1)O2.Cl", "QUANTITATIVE READOUT": 59.5}

----------
experiment: SAD study pharmacokinetic analysis; format: in vivo, human; settings: male, human, plasma, oral, 2000 mg, SAD, KH176 2000 mg, fasted; read-out: t1/2 (Geomean) (converted)

{"COMPOUND": "Cc1c(C)c2c(c(C)c1O)CC[C@@](C)(C(=O)N[C@@H]1CCCNC1)O2.Cl [KH176]", "half-life": "690 min"}

----------
assay: SAD study pharmacokinetic analysis; assay type: in vivo, human; conditions: male, human, plasma, oral, 300 mg, SAD, KH176 300 mg, fasted; read-out: AUC0-inf (Geomean)
REPORTED ENDPOINT: AUC(0-inf) (ng·h/mL)

{"ENTRY SMILES": "Cc1c(C)c2c(c(C)c1O)CC[C@@](C)(C(=O)N[C@@H]1CCCNC1)O2.Cl", "UNIT ABBREV": "ng·h/mL", "QUANTITATIVE READOUT": 7500}

----------
test: Protein binding; type: in vitro ADME

{"COMPOUND": "Cc1c(C)c2c(c(C)c1O)CC[C@@](C)(C(=O)N[C@@H]1CCCNC1)O2.Cl [KH176, hydrochloride]", "fraction unbound": "0.4 to 0.5"}

----------
experiment: SAD study pharmacokinetic analysis; type: in vivo, human; settings: male, human, plasma, oral, 100 mg, SAD, KH176 100 mg, fed; read-out: t1/2 (Geomean) (converted)
REPORTED ENDPOINT: half-life (h)

{"COMPOUND": "Cc1c(C)c2c(c(C)c1O)CC[C@@](C)(C(=O)N[C@@H]1CCCNC1)O2.Cl [KH176]", "QUANTITATIVE READOUT": 9.09}

----------
test: SAD study pharmacokinetic analysis; assay type: in vivo, human; details: male, human, plasma, oral, 800 mg, SAD, KH176 800 mg, fasted; read-out: t1/2 (Geomean) (converted)
REPORTED ENDPOINT: half-life (h)

{"ENTRY SMILES": "Cc1c(C)c2c(c(C)c1O)CC[C@@](C)(C(=O)N[C@@H]1CCCNC1)O2.Cl", "QUANTITATIVE READOUT": 9.8}

----------
test: SAD study pharmacokinetic analysis; assay type: in vivo, human; details: male, human, plasma, oral, 10 mg, SAD, KH176 10 mg, fasted; read-out: AUClast (Geomean)

{"ENTRY SMILES": "Cc1c(C)c2c(c(C)c1O)CC[C@@](C)(C(=O)N[C@@H]1CCCNC1)O2.Cl", "UNIT ABBREV": "ng·h/mL", "AUC(0-t)": 75}

----------
assay: SAD study pharmacokinetic analysis; format: in vivo, human; details: male, human, plasma, oral, 300 mg, SAD, KH176 300 mg, fasted; read-out: t1/2 (Geomean) (converted)
REPORTED ENDPOINT: half-life (h)

{"ENTRY SMILES": "Cc1c(C)c2c(c(C)c1O)CC[C@@](C)(C(=O)N[C@@H]1CCCNC1)O2.Cl", "REPORTED ENDPOINT": "half-life", "QUANTITATIVE READOUT": 9.64}

----------
test: MAD study pharmacokinetic analysis; format: in vivo, human; settings: male, human, plasma, oral, 100 mg, MAD, KH176 100 mg b.i.d, Day 7; read-out: AUCtau (Geomean)
REPORTED ENDPOINT: AUC (ng·h/mL)

{"MOLECULE": "Cc1c(C)c2c(c(C)c1O)CC[C@@](C)(C(=O)N[C@@H]1CCCNC1)O2.Cl [KH176]", "REPORTED ENDPOINT": "AUC", "UNIT ABBREV": "ng·h/mL", "QUANTITATIVE READOUT": 2760}

----------
assay: SAD study pharmacokinetic analysis; type: in vivo, human; conditions: male, human, plasma, oral, 100 mg, fed condition (100 mg, high calorie/high fat breakfast); read-out: median tmax
REPORTED ENDPOINT: Tmax (h)

{"ENTRY SMILES": "Cc1c(C)c2c(c(C)c1O)CC[C@@](C)(C(=O)N[C@@H]1CCCNC1)O2.Cl", "QUANTITATIVE READOUT": 2.5}
